Assay overview: Pharmacokinetic study in rats
Type: in vivo, rat
Conditions used: rat, in vivo, po, 5 mg/kg
Test readout: AUC(0-t) (ng·h/mL)
Report as a plain number; the unit ng·h/mL is understood.

// query Output AUC(0-t) of COc1ncc(-c2ccc(Cl)cc2)cc1[C@@H](c1ccccc1)[C@@](O)(CCN(C)C)c1cccc2ccccc12
// result 4080

* * *

Assay overview: Pharmacokinetic study in rats
Format: in vivo, rat
Conditions used: in vivo; Rat, Iv. 1.0 mg/kg; read-out: Vdss
Test readout: Vd

// query Output Vd of COc1nc2ccc(Br)cc2cc1[C@@H](c1ccccc1)[C@@](O)(CCN(C)C)c1cccc2ccccc12
// result 10.3 L/kg

* * *

Assay overview: Pharmacokinetic study in rats
Format: in vivo, rat
Conditions used: in vivo; Rat, Iv. 1.0 mg/kg; read-out: AUC0-inf
Test readout: AUC(0-inf) (ng·h/mL)
Report as a plain number; the unit ng·h/mL is understood.

// query Output AUC(0-inf) of COc1nc2ccc(Br)cc2cc1[C@@H](c1ccccc1)[C@@](O)(CCN(C)C)c1cccc2ccccc12 [BDQ, bedaquiline]
// result 1930

* * *

Assay overview: Pharmacokinetic study in beagle dogs
Type: in vivo
Conditions used: dog, in vivo, po, 6 mg/kg, Tmax
Test readout: Tmax (h)
Report as a plain number; the unit h is understood.

// query Output Tmax of COc1ncc(-c2ccc(Cl)cc2)cc1[C@@H](c1ccccc1)[C@@](O)(CCN(C)C)c1cccc2ccccc12
// result 5.33

* * *

Assay overview: Pharmacokinetic study in beagle dogs
Assay type: in vivo
Conditions used: dog, in vivo, po, 6 mg/kg, AUC0-inf
Test readout: AUC(0-inf) (ng·h/mL)
Report as a plain number; the unit ng·h/mL is understood.

// query Output AUC(0-inf) of COc1ncc(-c2ccc(Cl)cc2)cc1[C@@H](c1ccccc1)[C@@](O)(CCN(C)C)c1cccc2ccccc12 [WX-081, sudapyridine]
// result 22800

* * *

Assay overview: Pharmacokinetic study in mice
Type: in vivo, BALB/c mice
Conditions used: BALB/c, mouse, in vivo; Mice, Po. 6.25 mg/kg; read-out: AUC0-inf
Test readout: AUC(0-inf) (ng·h/mL)
Report as a plain number; the unit ng·h/mL is understood.

// query Output AUC(0-inf) of COc1nc2ccc(Br)cc2cc1[C@@H](c1ccccc1)[C@@](O)(CCN(C)C)c1cccc2ccccc12
// result 6360

* * *

For each record, write down the corresponding half-life.
Assay overview: Pharmacokinetic study in mice
Type: in vivo, BALB/c mice
Conditions used: BALB/c, mouse, plasma; Mice, Po. 6.25 mg/kg
Report as a plain number; the unit h is understood.

// query Output half-life of COc1ncc(-c2ccc(Cl)cc2)cc1[C@@H](c1ccccc1)[C@@](O)(CCN(C)C)c1cccc2ccccc12 [WX-081, sudapyridine]
// result 43.9

// query Output half-life of COc1nc2ccc(Br)cc2cc1[C@@H](c1ccccc1)[C@@](O)(CCN(C)C)c1cccc2ccccc12 [BDQ, bedaquiline]
// result 47.6

* * *

Assay overview: Pharmacokinetic study in rats
Type: in vivo, rat
Conditions used: rat, in vivo, iv, 1 mg/kg
Test readout: clearance
Provide the measurement as a number trailed by its unit.

// query Output clearance of COc1ncc(-c2ccc(Cl)cc2)cc1[C@@H](c1ccccc1)[C@@](O)(CCN(C)C)c1cccc2ccccc12 [WX-081, sudapyridine]
// result 8.25 mL/min/kg
